FYI, the data here is from paper PMC12416549.

# tested_target: T1, TNFR1 (Homo sapiens, UniProt P19438)
# T1 chain: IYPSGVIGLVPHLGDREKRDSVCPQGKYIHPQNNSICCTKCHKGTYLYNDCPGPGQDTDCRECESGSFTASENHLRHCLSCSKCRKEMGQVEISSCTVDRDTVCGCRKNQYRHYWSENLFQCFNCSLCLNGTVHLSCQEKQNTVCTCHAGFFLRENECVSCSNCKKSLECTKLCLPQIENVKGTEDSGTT
# assay_comment: yeast display SC50
Reported apparent Kd (screen) values for the following binders.
State just the number; it will be interpreted in nM.

binder: A63P (designed binder) SMEEEVEKAAKEYEKKKKEAIEKHLEKLKAKDKEAAERFLKELEEAAKEYAKDEAKTMSEEEPKRRAKKYKEKVLLSELSEEEQKEIKEAEEKLVRTILKYVEEAAK
apparent Kd (screen) (nM): 6.43

Req: Quick check: apparent Kd (screen) of D32G (designed binder) SMEEEVEKAAKEYEKKKKEAIEKHLEKLKAKGKEAAERFLKELEEAAKEYAKDEAKTMSEEEAKRRAKKYKEKVLLSELSEEEQKEIKEAEEKLVRTILKYVEEAAK ?
Resp: 0.593
